Numbers sourced from ChEMBL document CHEMBL1128025.

- Protocol summary: Concentration maxima after oral dosing in dogs
- Format: ADME, organism-based, Canis lupus familiaris
- Design: route oral
- Run parameters: dog, in vivo
Experimental endpoint: Cmax
Report field: quantity (unit follows the number).

Here are 5 molecules together with their reported answers.
{"Mol smiles": "CC(C)(C)NC(=O)[C@@H]1CN(Cc2c(F)cccc2F)CCN1C[C@@H](O)C[C@@H](Cc1ccncc1)C(=O)N[C@H]1c2ccccc2C[C@H]1O", "Cmax": "8060 nM"}
{"Mol smiles": "CC(C)(C)NC(=O)[C@@H]1CN(Cc2cc(Br)cs2)CCN1C[C@@H](O)C[C@@H](Cc1cccnc1)C(=O)N[C@H]1c2ccccc2C[C@H]1O", "Cmax": "633 nM"}
{"Mol smiles": "CC(C)(C)NC(=O)[C@@H]1CN(Cc2cccnc2)CCN1C[C@@H](O)C[C@@H](Cc1ccncc1)C(=O)N[C@H]1c2ccccc2C[C@H]1O", "Cmax": "414 nM"}
{"Mol smiles": "CC(C)(C)NC(=O)[C@@H]1CN(Cc2cc(Br)cs2)CCN1C[C@@H](O)C[C@@H](Cc1ccncc1)C(=O)N[C@H]1c2ccccc2C[C@H]1O", "Cmax": "2200 nM"}
{"Mol smiles": "CC(C)(C)NC(=O)[C@@H]1CN(Cc2cc3sccc3s2)CCN1C[C@@H](O)C[C@@H](Cc1cccnc1)C(=O)N[C@H]1c2ccccc2C[C@H]1O", "Cmax": "3290 nM"}

Field: next molecule
Cmax lookup needed for CC(C)(C)NC(=O)[C@@H]1CN(Cc2cc3sccc3s2)CCN1C[C@@H](O)C[C@@H](Cc1ccncc1)C(=O)N[C@H]1c2ccccc2C[C@H]1O , thanks.
1590 nM

---

- Assayed target: Human immunodeficiency virus type 1 protease (Human immunodeficiency virus 1)
Experimental endpoint: IC50

Query IC50 on Human immunodeficiency virus type 1 protease (Human immunodeficiency virus 1) for CC(C)(C)NC(=O)[C@@H]1CN(Cc2cc(Br)cs2)CCN1C[C@@H](O)C[C@@H](Cc1cccnc1)C(=O)N[C@H]1c2ccccc2C[C@H]1O
0.03 nM

Query IC50 on Human immunodeficiency virus type 1 protease (Human immunodeficiency virus 1) for CC(C)(C)NC(=O)[C@@H]1CN(Cc2cc3ccsc3s2)CCN1C[C@@H](O)C[C@@H](Cc1ccncc1)C(=O)N[C@H]1c2ccccc2C[C@H]1O
0.06 nM

Query IC50 on Human immunodeficiency virus type 1 protease (Human immunodeficiency virus 1) for CC(C)(C)NC(=O)[C@@H]1CN(S(=O)(=O)c2cccc3cccnc23)CCN1C[C@@H](O)C[C@@H](Cc1ccncc1)C(=O)N[C@H]1c2ccccc2C[C@H]1O
0.015 nM

---

Human immunodeficiency virus type 1 protease (Human immunodeficiency virus 1) measurements of pIC50, listed per entry.
// pIC50 is dimensionless: -log10 of concentration (M)

Here are 3 compounds together with their reported answers.
{"Mol smiles": "CC(C)(C)NC(=O)[C@@H]1CN(Cc2cc3ccsc3s2)CCN1C[C@@H](O)C[C@@H](Cc1cccnc1)C(=O)N[C@H]1c2ccccc2C[C@H]1O", "Assayed target": "Human immunodeficiency virus type 1 protease (Human immunodeficiency virus 1)", "pIC50": 9.92}
{"Mol smiles": "CC(C)(C)NC(=O)[C@@H]1CN(Cc2cccnc2)CCN1C[C@@H](O)C[C@@H](Cc1ccncc1)C(=O)N[C@H]1c2ccccc2C[C@H]1O", "Assayed target": "Human immunodeficiency virus type 1 protease (Human immunodeficiency virus 1)", "pIC50": 8.77}
{"Mol smiles": "CC(C)(C)NC(=O)[C@@H]1CN(Cc2c(F)cccc2F)CCN1C[C@@H](O)C[C@@H](Cc1ccncc1)C(=O)N[C@H]1c2ccccc2C[C@H]1O", "Assayed target": "Human immunodeficiency virus type 1 protease (Human immunodeficiency virus 1)", "pIC50": 9.32}

pIC50 lookup needed for CC(C)(C)NC(=O)[C@@H]1CN(Cc2cccnc2)CCN1C[C@@H](O)C[C@@H](Cc1cccnc1)C(=O)N[C@H]1c2ccccc2C[C@H]1O , thanks.
8.77

pIC50 lookup needed for CC(C)(C)NC(=O)[C@@H]1CN(S(=O)(=O)c2cccc3cccnc23)CCN1C[C@@H](O)C[C@@H](Cc1cccnc1)C(=O)N[C@H]1c2ccccc2C[C@H]1O , thanks.
10.52

pIC50 lookup needed for CC(C)(C)NC(=O)[C@@H]1CN(Cc2cc3sccc3s2)CCN1C[C@@H](O)C[C@@H](Cc1ccncc1)C(=O)N[C@H]1c2ccccc2C[C@H]1O , thanks.
10.30
